# SYSTEM NAME: Dual specificity mitogen-activated protein kinase kinase 1 (Homo sapiens) (UniProt Q02750);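 note: reported value is a mean percent inhibition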
# Sequence (Q02750 whole entry): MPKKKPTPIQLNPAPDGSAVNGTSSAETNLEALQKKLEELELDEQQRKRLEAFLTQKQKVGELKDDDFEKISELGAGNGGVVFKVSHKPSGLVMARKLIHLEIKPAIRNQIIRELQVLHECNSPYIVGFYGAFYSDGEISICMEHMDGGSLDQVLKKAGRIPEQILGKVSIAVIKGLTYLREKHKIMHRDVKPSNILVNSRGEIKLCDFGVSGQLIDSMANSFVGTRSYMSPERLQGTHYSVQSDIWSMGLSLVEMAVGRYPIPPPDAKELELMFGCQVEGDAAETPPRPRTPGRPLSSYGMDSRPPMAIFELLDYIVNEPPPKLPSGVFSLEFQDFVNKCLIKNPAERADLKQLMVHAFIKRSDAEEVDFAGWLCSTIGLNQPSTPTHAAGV
# CONDITION DESCRIPTION: at 0.1 µM
inhibition listing for selected compounds.
# unit: % | format: bare number

Find the recorded inhibition belonging to O=C(Nc1n[nH]c2cc(-c3ccc(F)cc3)ccc12)C1CC1 and report it. 3.48

Find the recorded inhibition belonging to CC1=C(C(=O)Nc2cc(Cl)c3[nH]ncc3c2)C(c2ccc(C(F)(F)F)cc2)CC(=O)N1 (stereo not given) and report it. 9.84

Find the recorded inhibition belonging to Cc1ccc2c(-c3ccnc(Nc4ccccc4)n3)c(-c3ccc(F)cc3)nn2n1 and report it. 4.55

Find the recorded inhibition belonging to COc1cc2ncn(-c3cc(OCc4ccccc4C(F)(F)F)c(C(=O)N(C)C)s3)c2cc1OC and report it. 0.8

Let us move to another entry and its inhibition.
Find the recorded inhibition belonging to CNC(=O)c1cccc(C#Cc2cncnc2Nc2ccc(OCc3cccc(F)c3)c(Cl)c2)c1 and report it. 0.1
